# tested-target: hemagglutinin (HA) of influenza virus H5N1 A/Vietnam/1194/04 (influenza A virus)
# protocol: cell-based or functional assay
measurement-kind: neutralization titer (nM)
# unit: nM | format: bare number

Ask: neutralization titer for MD1216 (bispecific antibody) EVQLVESGGGLVQPGGSLRLSCAVSISIFDIYAMDWYRQAPGKQRDLVATSFRDGSTNYADSVKGRFTISRDNAKNTLYLQMNSLKPEDTAVYLCHVSLYRDPLGVAGGMGVYWGKGALVTVSSAAAGGGGSGGGGSGGGGSGGGGSGGGGGGSGGGGSGGGGSGGGGSGGGGSGGGGSGGGGSEVQLVESGGGLVQAGGSLKLSCAASGRTYAMGWFRQAPGKEREFVAHINALGTRTYYSDSVKGRFTISRDNAKNTEYLEMNNLKPEDTAVYYCTAQGQWRAAPVAVAAEYEFWGQGTQVTVSS ?
Reply: 3.4

Ask: How about SD1036 + SD1038 (protein) VHH 1: EVQLVESGGGLVQAGGSLKLSCAASGRTYAMGWFRQAPGKEREFVAHINALGTRTYYSDSVKGRFTISRDNAKNTEYLEMNNLKPEDTAVYYCTAQGQWRAAPVAVAAEYEFWGQGTQVTVSS VHH 2: EVQLVESGGGLVQPGGSLRLSCAVSISIFDIYAMDWYRQAPGKQRDLVATSFRDGSTNYADSVKGRFTISRDNAKNTLYLQMNSLKPEDTAVYLCHVSLYRDPLGVAGGMGVYWGKGALVTVSS ?
Reply: 19.3
